# Assay Info: in vivo
# Test Settings: male, Wistar, rat, po, 50 mg/kg
Assay Readout: AUC (µg·h/mL)
A number alone suffices; assume µg·h/mL.

Reported AUC for "CC(C)=CCOc1ccc(/C(C(=O)O)=C(\CC(C)C)C(=O)O)cc1" was 1610

---

# Assay Info: in vivo
# Test Settings: male, Wistar, rat
Assay Readout: bioavailability (%)
A number alone suffices; assume %.

Reported bioavailability for CC(C)=CCOc1ccc(/C(C(=O)O)=C(\CC(C)C)C(=O)O)cc1 [M1] was 19.4

---

# Assay Info: in vivo
# Test Settings: male, Wistar, rat, iv, 10 mg/kg
Assay Readout: clearance (mL/h/kg)
A number alone suffices; assume mL/h/kg.

Reported clearance for "CC(C)=CCOc1ccc(/C(C(=O)O)=C(\CC(C)C)C(=O)O)cc1" was 5.96
